test system: OVCAR-5 ovarian; test: NCI tumour cell line growth inhibition, 48 h
MEASURED_ENDPOINT: log10(TGI) (log10 of the value in µM)

MOLECULE | log10(TGI)
NS(=O)(=O)c1ccc(NC(=S)NC(=O)Nc2ccc(Cl)c(Cl)c2)cc1 | 1.45
COc1cc2cc(NCc3cccc(Cl)c3)nc(C)c2cc1OC | 1.40
CC(C)(C)[Si](C)(C)OCC1OC(n2cnc3c(N)ncnc32)C2OC(=S)OC12 (stereo not drawn) | 1.94
ClC1=C(Cl)C(Cl)(C2(Cl)C(Cl)=C(Cl)C(Cl)=C2Cl)C(Cl)=C1Cl | 0.44
Sc1cccc2cccnc12 | 1.25
Cc1cn([C@@H]2O[C@H](CO[Si](C)(C)C(C)(C)C)[C@]3(O[C@H]3C(=O)NO)[C@H]2O[Si](C)(C)C(C)(C)C)c(=O)[nH]c1=O | 0.52

---

tested on: RXF 393 renal; test: NCI tumour cell line growth inhibition, 48 h

COMPOUND | UNIT_DESCRIPTOR | CENSOR_SYMBOL | TGI
CCOc1ccc(/C=C2\N=C(c3ccccc3)OC2=O)cc1 | µM | > | 100
Cn1cc(C2NC(=O)c3ccccc3N2)c2ccccc21 (stereo unspecified) | µM | = | 0.704
CC(=O)c1ccc(Br)cc1NC1=CC(=O)c2ncccc2C1=O | µM | = | 18.7
COc1ccc2c(c1)[C@@H](NC(C)=O)CCc1cc(OC)c(OC)c(OC)c1-2 | µM | > | 8.58
Clc1ccc(Cc2nc3ccccc3o2)cc1 | µM | = | 97.8
CN1CCN(Cc2ccc(NC(=O)c3cncc(C#Cc4cnc(N)c5ncccc45)c3)cc2C(F)(F)F)CC1 | µM | = | 1.09
COC(=O)c1c2c(c(C)[n+]([O-])c1C)C(=O)C(NCc1ccc(OC)cc1)=CC2=O | µM | = | 3.7
CC(=O)OCC1C(=O)OCC1C(=O)N1Cc2cc3ccccc3nc2C1 (stereo unspecified) | µM | = | 2.57
C=C(Br)C(C)(Cl)CCC(Br)C(C)(C)Br (stereo unspecified) | µM | > | 100
N/N=c1/nc2n(c3ncccc13)C=CNN2 | µM | > | 100
O=C(CCc1nnc2s/c(=C\c3ccc([N+](=O)[O-])cc3)c(=O)n12)Nc1ccc(Cl)c(Cl)c1 | µM | = | 34.6
CSC(=S)CC(O)[C@@H]1CC2c3ccccc3C1c1ccccc12 (stereo partly specified) | µM | = | 7.54
CC1(C)N=C(N)N=C(N)N1c1ccc(OCCCNC(=O)Nc2ccc(S(=O)(=O)F)cc2)c(Cl)c1 | µM | > | 100
O=C(O)/C=C/c1ccc(O)c(O)c1 | µM | > | 100
O=C(/C=C\c1ccc(O)c(O)c1)c1ccccc1O | µM | = | 17.2
N#CC(C(=O)CCCC(=O)Nc1ccccc1[N+](=O)[O-])c1c(Cl)cccc1Cl (stereo unspecified) | µM | > | 100

---

tested on: CAKI-1 renal; assay: NCI tumour cell line growth inhibition, 48 h

MOLECULE | TARGET_OR_TEST_SYSTEM | TGI
COC1=C(C(c2cc(OC)c(OC)c(OC)c2)c2cc3c(cc2OC)OCO3)C(=O)OC1 (stereo not given) | CAKI-1 renal | > 100 µM
C=C1CC[C@](C)(O)[C@@]2(C)CC[C@H]3C(=C(C)C)C(=O)C[C@]3(C)C[C@H]12 | CAKI-1 renal | > 50 µM
C=CCN1C(=O)CC2[C@@H]3CCc4cc(O)ccc4C3CC[C@]2(C)C1=O (stereo not given in full) | CAKI-1 renal | > 10 µM
O=C(O)C(Cc1cc(I)c(O)c(I)c1)C1CCCCC1 (stereo not given) | CAKI-1 renal | > 100 µM
COc1ccc2c(O)c(Oc3ccc(Cl)cc3)c(=O)oc2c1 | CAKI-1 renal | > 100 µM

---

system: OVCAR-5 ovarian; assay: NCI tumour cell line growth inhibition, 48 h
// values below are reported TGI
MEASURED_ENDPOINT: TGI (µM)

SMILES | MEASURED_ENDPOINT | CENSOR_SYMBOL | RESULT_VALUE
CC(C)=CCC/C(C)=C/CC/C(C)=C/CSC[C@H](NC(=O)CCCCCN1CCN(C)CC1)C(=O)NC1CCCCCC1 | TGI | = | 3.6
CCN(Cc1ccc(OC)cc1)c1ccc(CO)c(Cl)c1 | TGI | = | 0.636
CN1CCN(c2cc3[nH]c4cc(O)cc(O)c4c(=O)c3cc2N)CC1 | TGI | > | 100
N=C(N)SCc1ccc2c(c1)S(=O)(=O)c1ccccc1O2 | TGI | = | 47.3
Cc1cc(N(CCC#N)CCC#N)ccc1/C=C(\NC(=O)/C=C/c1ccccc1)C(=O)N=[N+]=[N-] | TGI | > | 100

---

tested on: MOLT-4 leukemia; test: NCI tumour cell line growth inhibition, 48 h; in the data active = GI50 below about 0.43 µM; inactive = the rest
Labels: YES = active, NO = inactive

COMPOUND | TARGET_OR_TEST_SYSTEM | LABEL_CLASS
N#CC1=C(N)Oc2c(sc3c(Br)cccc23)C1c1ccc([N+](=O)[O-])cc1 (stereo not drawn) | MOLT-4 leukemia | YES
CCOc1ccc(N(C)c2ccc(/C=C/C3=[N+](C)c4ccccc4C3(C)C)cc2)cc1 | MOLT-4 leukemia | YES
Nc1c(C(=O)Nc2cccc(Cl)c2)sc2nc3c(cc12)C(=O)CCC3 | MOLT-4 leukemia | NO

---

system: RPMI-8226 leukemia; test: NCI tumour cell line growth inhibition, 48 h

MOLECULE | TGI
COc1ccc2c(-c3csc(-c4c[nH]c5ccc(Br)cc45)n3)c[nH]c2c1 | > 100 µM
CC(NCc1c(O)ccc2c(-c3ccccc3)cc(=O)oc12)C(=O)O (stereo unspecified) | > 100 µM
O=C1CSCC(=O)Nc2ccccc2N1 | > 100 µM
NC(N)=N/N=C\c1c(-c2cccc([N+](=O)[O-])c2)nc2sccn12 | > 100 µM
N#Cc1cc2c(cc1C#N)SCCSCCCSCCS2 | > 100 µM
Cc1nc2ccc(F)cc2c2c1CCS2 | > 100 µM
Cc1ccc2c(c1C)C(=O)C1(C2)Cc2ccc3c(c2C1=O)CCC3 (stereo unspecified) | > 100 µM
C[C@@H]1CN2[C@H]3[C@@H]1CC[C@]31CCC(=O)O[C@]1(C)[C@H]1CC[C@H]3CCC=C3[C@@H]12 | > 30 µM
O=C(Cc1ccccc1)NN1C(=O)C(Cl)C1c1ccc(Cl)cc1 (stereo unspecified) | > 100 µM
C#CCN(Cc1ccc2nc(-c3ccccc3)c(Cl)nc2c1)c1ccc(F)cc1 | > 100 µM
CCOc1ccc(/C=C2\N=C(c3ccccc3)OC2=O)cc1 | > 100 µM

---

test system: SK-MEL-28 melanoma; assay: NCI tumour cell line growth inhibition, 48 h
MEASURED_ENDPOINT: TGI

COMPOUND | TARGET_OR_TEST_SYSTEM | RESULT_VALUE
CCOC(=O)c1noc2c1CCc1c-2cn(Cc2ccc(OC)cc2)c1-c1cc(OC)c(OC)c(OC)c1 | SK-MEL-28 melanoma | > 100 µM
O=S1OC(c2ccccc2)(c2ccccc2)C(c2ccccc2)(c2ccccc2)O1 | SK-MEL-28 melanoma | > 100 µM
CN1CCN(Cn2nc(COc3ccccc3Cl)n(/N=C/c3ccc(-c4ccc(Cl)cc4Cl)o3)c2=S)CC1 | SK-MEL-28 melanoma | > 100 µM
CCN(CC)C(=O)CCn1ccc(=O)[nH]c1=O | SK-MEL-28 melanoma | > 100 µM
O=C(CCCc1ccc(N(CCCl)CCCl)cc1)NCc1ccccc1 | SK-MEL-28 melanoma | > 100 µM
O=C1C2C3CC4C5C3C1C5C1(SCCS1)C42 (stereo not drawn) | SK-MEL-28 melanoma | > 100 µM
O=C(/C=C/c1ccccc1)NC1C=Nc2ccc([N+](=O)[O-])cc2NC1=O (stereo not drawn) | SK-MEL-28 melanoma | > 100 µM
O=c1[nH]c(=S)[nH]cc1CN1CCOCC1 | SK-MEL-28 melanoma | > 100 µM
COc1ccc(/C=C/C(=O)c2cc(OC)cc(OC)c2)cc1 | SK-MEL-28 melanoma | 27 µM
COc1cc2cc(NCc3cccc(Cl)c3)nc(C)c2cc1OC | SK-MEL-28 melanoma | 5.42 µM
COc1cc(/C=C/C(=O)c2cccc(-n3cc(-c4ccccc4)[nH]c3=O)c2)cc(OC)c1OC | SK-MEL-28 melanoma | 3.2 µM
C=CCN1C(=O)CC2[C@@H]3CCc4cc(O)ccc4C3CC[C@]2(C)C1=O (stereo partly drawn) | SK-MEL-28 melanoma | > 10 µM
COc1ccc(-c2nc3sc(-c4cc(OC)c(OC)c(OC)c4)nn3c2/C=C2/C(=O)Nc3ccc(F)cc32)cc1 | SK-MEL-28 melanoma | 27.8 µM
